From: patent US20240043427A1

IC50 values, listed per item
biological target: CD73 (Homo sapiens (Human)); assay type: biochemical; conditions: 1 mM NaH2PO4 in enzyme buffer, CD73 0.3 nM, AMP 15 uM
Sequence (P21589 27-574): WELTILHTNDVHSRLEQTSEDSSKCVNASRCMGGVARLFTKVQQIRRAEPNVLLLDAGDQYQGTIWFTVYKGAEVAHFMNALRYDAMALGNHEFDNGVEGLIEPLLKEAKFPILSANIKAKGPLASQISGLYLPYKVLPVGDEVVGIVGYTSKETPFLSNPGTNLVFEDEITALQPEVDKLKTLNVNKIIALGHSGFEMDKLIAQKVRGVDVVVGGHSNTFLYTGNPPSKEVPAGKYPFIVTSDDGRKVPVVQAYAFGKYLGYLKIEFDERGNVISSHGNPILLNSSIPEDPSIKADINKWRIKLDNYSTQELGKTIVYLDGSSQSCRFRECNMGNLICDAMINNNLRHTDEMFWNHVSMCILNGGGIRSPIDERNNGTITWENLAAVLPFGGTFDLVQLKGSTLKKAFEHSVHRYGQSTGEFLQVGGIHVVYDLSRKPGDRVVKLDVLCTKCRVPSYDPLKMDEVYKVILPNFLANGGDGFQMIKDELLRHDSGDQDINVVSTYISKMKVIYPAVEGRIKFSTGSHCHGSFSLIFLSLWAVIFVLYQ
Express it in nM; write the number only.

Record excerpt, results attached:
COc1ccc(C2CN(c3cc(-c4c[nH]c(=O)[nH]c4=O)nn4ccnc34)CC2(F)F)cc1 (centres unmarked) | 3.32
C#CCC1CCN(c2cc(-c3c[nH]c(=O)[nH]c3=O)nn3ccnc23)C1 (centres unmarked) | 7.24
O=c1[nH]cc(-c2cc(N3CCC4(CCC(F)(F)CC4)C3)c3nccn3n2)c(=O)[nH]1 | 23.3

Now turn to the next compound.
# query: IC50 of entry `O=c1[nH]cc(-c2cc(N3CC4CC3C4)c3nccn3n2)c(=O)[nH]1`
77.5
